Hey, just so you know, these numbers are from ChEMBL document CHEMBL5036347.

assay.explanation: Water solubility of compound at pH 7 at 0.1 to 10 mg by HPLC-UV analysis
Format: physicochemical
condition: dose 0.1-10 mg
value.kind: solubility

Specify reported solubility for the compound shown: COc1cc2cc(C#N)ccc2c(OC)c1Oc1cc(N)nc(Nc2ccc(C#N)cc2)n1.O=C(O)/C=C\C(=O)O 7 µg/mL

Assign solubility to the following record: COc1cc2cc(C#N)ccc2c(OC)c1Oc1cc(N)nc(Nc2ccc(C#N)cc2)n1 < 1 µg/mL

Report solubility for COc1cc2cc(C#N)ccc2c(OC)c1Oc1cc(N2CCC(O)C2)nc(Nc2ccc(C#N)cc2)n1.O=C(O)C(O)C(O)C(=O)O (centres undefined) < 1 µg/mL

Assign solubility to the following record: COc1cc2cc(C#N)ccc2c(OC)c1Oc1cc(N2CCC(O)C2)nc(Nc2ccc(C#N)cc2)n1.O=C(O)CC(O)(CC(=O)O)C(=O)O (centres undefined) < 1 µg/mL

---

target.of.assay: Human immunodeficiency virus type 1 reverse transcriptase (Human immunodeficiency virus 1, UniProt Q72547, K103N/Y181C)
assay.explanation: Inhibition of HIV1 reverse transcriptase K103N/Y181C double mutant using oligo(dT)16 as primer measured after 40 mins by picogreen-dye based spectrofluorimetric analysis
value.kind: pIC50
The quantity pIC50 is defined as the negative base-10 logarithm of the molar concentration.

Look up pIC50 of CCNc1cc(Oc2c(OC)cc3cc(C#N)ccc3c2OC)nc(Nc2ccc(C#N)cc2)n1 and report it. 6.37

Respond only with pIC50 recorded for COc1cc2cc(C#N)ccc2c(OC)c1Oc1cc(N2CCC(O)C2)nc(Nc2ccc(C#N)cc2)n1 (stereo not drawn) 6.35

Quickly give me recorded pIC50 for COc1cc2cc(C#N)ccc2c(OC)c1Oc1cc(N)nc(Nc2ccc(C#N)cc2)n1 7.22

---

assay.explanation: Selectivity index, ratio of CC50 for cytotoxicity against human MT4 cells to EC50 of Anti-HIV activity against HIV-1 IIIB infected in human MT4
Format: toxicity, cell-based
condition: read-out: Selectivity Index
value.kind: selectivity ratio

For COc1cc2cc(C#N)ccc2c(OC)c1Oc1cc(NCCCOC(C)C)nc(Nc2ccc(C#N)cc2)n1 , write its selectivity ratio. > 5380

Check the records and state selectivity ratio for COc1cc2cc(C#N)ccc2c(OC)c1Oc1cc(N)nc(Nc2ccc(C#N)cc2)n1 3500

Give reported selectivity ratio value for CCC(C)Nc1cc(Oc2c(OC)cc3cc(C#N)ccc3c2OC)nc(Nc2ccc(C#N)cc2)n1 (stereo unspecified) > 5670

Determine from records and report selectivity ratio for COc1cc2cc(C#N)ccc2c(OC)c1Oc1cc(NC(C)(C)C)nc(Nc2ccc(C#N)cc2)n1 > 4830

For the compound COc1cc2cc(C#N)ccc2c(OC)c1Oc1cc(N2CCC(O)C2)nc(Nc2ccc(C#N)cc2)n1 (stereo unspecified) , give its measured selectivity ratio value. 22800

Please look at this compound and report its selectivity ratio: COc1cc2cc(C#N)ccc2c(OC)c1Oc1cc(NCC(F)(F)F)nc(Nc2ccc(C#N)cc2)n1 > 6820

In one line, give reported selectivity ratio of the entry Nc1ccn([C@@H]2CS[C@H](CO)O2)c(=O)n1 . > 15

Tell me its selectivity ratio given COc1cc2cc(C#N)ccc2c(OC)c1Oc1cc(NCC(O)CO)nc(Nc2ccc(C#N)cc2)n1 (stereo unspecified) as the entry. 293

Let me know recorded selectivity ratio for COc1cc2cc(C#N)ccc2c(OC)c1Oc1cc(NC(C)C)nc(Nc2ccc(C#N)cc2)n1 , thanks. > 10400

Name the recorded selectivity ratio of the item CCC(C)CNc1cc(Oc2c(OC)cc3cc(C#N)ccc3c2OC)nc(Nc2ccc(C#N)cc2)n1 (stereo unspecified) in your answer. > 3550

Consider the compound COc1cc2cc(C#N)ccc2c(OC)c1Oc1cc(NCC(C)(C)C)nc(Nc2ccc(C#N)cc2)n1 . State its measured selectivity ratio. > 2880

Give a short answer stating reported selectivity ratio for CCCCCC(C)Nc1cc(Oc2c(OC)cc3cc(C#N)ccc3c2OC)nc(Nc2ccc(C#N)cc2)n1 (stereo unspecified) . > 151

Identify measured selectivity ratio corresponding to CCCCCNc1cc(Oc2c(OC)cc3cc(C#N)ccc3c2OC)nc(Nc2ccc(C#N)cc2)n1 > 5670

Query selectivity ratio for CCCNc1cc(Oc2c(OC)cc3cc(C#N)ccc3c2OC)nc(Nc2ccc(C#N)cc2)n1 > 15700

Find the measured selectivity ratio of COc1cc2cc(C#N)ccc2c(OC)c1Oc1cc(NCCCCO)nc(Nc2ccc(C#N)cc2)n1 and report it. 2190

Answer with the recorded selectivity ratio of COc1cc2cc(C#N)ccc2c(OC)c1Oc1cc(NCCC2=CCCCC2)nc(Nc2ccc(C#N)cc2)n1 only. > 688

Query selectivity ratio for CCNc1cc(Oc2c(OC)cc3cc(C#N)ccc3c2OC)nc(Nc2ccc(C#N)cc2)n1 > 30500

Check the records and state selectivity ratio for CCCCNc1cc(Oc2c(OC)cc3cc(C#N)ccc3c2OC)nc(Nc2ccc(C#N)cc2)n1 > 9600

Return selectivity ratio (reported value) for this compound: CNc1cc(Oc2c(OC)cc3cc(C#N)ccc3c2OC)nc(Nc2ccc(C#N)cc2)n1 4080

Answer with the recorded selectivity ratio for the compound listed here: COc1cc2cc(C#N)ccc2c(OC)c1Oc1cc(NC2CCCC2)nc(Nc2ccc(C#N)cc2)n1 > 5170

Look up and state reported selectivity ratio for COc1cc2cc(C#N)ccc2c(OC)c1Oc1cc(NC2CCOC2)nc(Nc2ccc(C#N)cc2)n1 (stereo unspecified) > 19000

Input COc1cc2cc(C#N)ccc2c(OC)c1Oc1cc(NCC2CC2)nc(Nc2ccc(C#N)cc2)n1 , output reported selectivity ratio. > 10500

Write down selectivity ratio measured for item COc1cc2cc(C#N)ccc2c(OC)c1Oc1cc(NCC2CCOC2)nc(Nc2ccc(C#N)cc2)n1 (stereo unspecified) > 12500

Dear colleague, please send me the reported selectivity ratio for COc1cc2cc(C#N)ccc2c(OC)c1Oc1cc(NC2CCOCC2)nc(Nc2ccc(C#N)cc2)n1 when you can. > 5970

Supply selectivity ratio value. Item: COc1cc2cc(C#N)ccc2c(OC)c1Oc1cc(N2CCOCC2)nc(Nc2ccc(C#N)cc2)n1 > 6510

Return reported selectivity ratio. Input compound: COc1cc2cc(C#N)ccc2c(OC)c1Oc1cc(NCCCO)nc(Nc2ccc(C#N)cc2)n1 > 1630
